Hello, the source for this data is the Immune Epitope Database (IEDB), in case you need it.

molecular target: HLA-B*48:01; assay: IEDB peptide-MHC binding, purified MHC/competitive/fluorescence; filed as Kd, often an IC50 or EC50 that approximates it; bounds were set here for any values at or beyond the usual limits of such assays; details: source organism: Cryptosporidium parvum Iowa II
Assay endpoint: Kd (nM)
Answers are plain numbers, in nM.

Input: Please report Kd for the following sequence: IQNEIMKPL
Output: 502

----------
target: HLA-A*11:01; test: IEDB peptide-MHC binding, purified MHC/competitive/radioactivity; filed as Kd, often an IC50 or EC50 that approximates it; bounds were set here for any values at or beyond the usual limits of such assays; conditions: source organism: Lymphocytic choriomeningitis virus (strain Armstrong)
Assay endpoint: pKd
Answers are plain numbers, as −log10 of the molar value.

Input: Please report pKd for the following sequence: KVILSEISFH
Output: 6.09
